Assignment: determine reported Plant response rating (0 to 100 scale), Velvetleaf for the given compounds.
test system: velvetleaf (Abutilon theophrasti); test: Test A pre-/postemergence greenhouse herbicide test, visual injury rating 0-100; format: in vivo; conditions: Postemergence, 500 g ai/ha

Use these answered entries as a reference point.
CHEMICAL_SMILES | VALUE
O=C(c1ccccc1)c1cn(S(=O)(=O)C(F)(F)F)nc1-c1cc(Cl)cc(Cl)c1 | 100
ON=C(c1cccnc1)c1c[nH]nc1-c1cc(Cl)cc(Cl)c1 | 0
O=C(c1ccccc1)c1cn(S(=O)(=O)CCl)nc1-c1cc(Cl)cc(Cl)c1 | 90

Take each entry in turn and give its Plant response rating (0 to 100 scale), Velvetleaf.
1. CCOC(OCC)(c1cccs1)c1c[nH]nc1-c1cc(Cl)cc(Cl)c1
2. C#CCn1cc(C(=O)c2cccnc2)c(-c2cc(Cl)cc(Cl)c2)n1
3. FC(F)(F)Cn1cc(C(=NNc2ccccc2)c2ccccc2)c(-c2cc(Cl)cc(Cl)c2)n1

90
60
30

---

Hi there, I'd appreciate the recorded pest or weed control at 250 g/ha for every entry that follows.
tested on: pigweed (Amaranthus retroflexus); experiment: Test C pre-/postemergence greenhouse test, plant response rating 0-100; type: in vivo; settings: Amaranthus retroflexus, post-emergence; Postemergence, 250 g ai/ha; scale 0 to 100
One number for each entry, in %.

Examples with their reported pest or weed control at 250 g/ha follow.
CHEMICAL_SMILES | DISPLAY_UNIT | pest or weed control at 250 g/ha
CCCn1cc(C(=O)c2ccccc2)c(-c2cc(Cl)cc(Cl)c2)n1 | % | 100
CCOC(OCC)(c1ccccc1)c1c[nH]nc1-c1cc(Cl)cc(Cl)c1 | % | 100
O=C(c1ccccc1)c1cn(CO)nc1-c1cc(Cl)cc(Cl)c1 | % | 100

For the next question, use this compound.
If you can, please state the reported pest or weed control at 250 g/ha value of C#CCn1cc(C(=O)c2ccccc2)c(-c2cc(Cl)cc(Cl)c2)n1 .
98

---

test system: oilseed rape (Brassica napus); test: Test C pre-/postemergence greenhouse test, plant response rating 0-100; assay type: in vivo; settings: Postemergence, 500 g ai/ha; scale 0 to 100
MEASURED_ENDPOINT: Plant response rating, Oilseed Rape
Answers are plain numbers.

Batch request: Plant response rating, Oilseed Rape per item, same order as input.
1. O=Cn1cc(C(=O)c2ccccc2)c(-c2cc(Cl)cc(Cl)c2)n1 [Compound 28]
2. COCC(=O)n1cc(C(=O)c2ccccc2)c(-c2cc(Cl)cc(Cl)c2)n1 [Compound 16]
3. COC(OC)(c1ccccc1)c1c[nH]nc1-c1cc(Cl)cc(Cl)c1 [Compound 13]

[95, 90, 70]

For the compound shown here, CCOC(OCC)(c1cccs1)c1c[nH]nc1-c1cc(Cl)cc(Cl)c1 [Compound 27] , give the reported Plant response rating, Oilseed Rape.
45

---

system: velvetleaf (Abutilon theophrasti); assay: Test A pre-/postemergence greenhouse herbicide test, visual injury rating 0-100; format: in vivo; conditions: Postemergence, 125 g ai/ha
MEASURED_ENDPOINT: Plant response rating (0 to 100 scale), Velvetleaf
Answers are plain numbers.

# example entries with known answers
CHEMICAL_SMILES | VALUE
O=C(c1cncc(F)c1)c1c[nH]nc1-c1cc(F)cc(F)c1 | 0
O=C(c1ccccc1)c1cn(C(=O)C2CC2)nc1-c1cc(Cl)cc(Cl)c1 | 50
CON=C(c1cccs1)c1c[nH]nc1-c1cc(Cl)cc(Cl)c1 | 60
C=CCn1cc(C(=O)c2cccnc2)c(-c2cc(Cl)cc(Cl)c2)n1 | 10
Clc1cc(Cl)cc(-c2n[nH]cc2C2(c3ccccc3)SCCCS2)c1 | 10

Below: the item to evaluate.
Suppose we examine the compound O=C(c1ccccc1)c1cn(C(=O)Cc2ccccc2)nc1-c1cc(Cl)cc(Cl)c1 ; what Plant response rating (0 to 100 scale), Velvetleaf value has been reported?
80
